Just for reference, patent US20250179000A1 is where these values come from.

tested on: Rat mGlu3 (Rattus norvegicus, UniProt P31422)
Sequence (P31422 23-879): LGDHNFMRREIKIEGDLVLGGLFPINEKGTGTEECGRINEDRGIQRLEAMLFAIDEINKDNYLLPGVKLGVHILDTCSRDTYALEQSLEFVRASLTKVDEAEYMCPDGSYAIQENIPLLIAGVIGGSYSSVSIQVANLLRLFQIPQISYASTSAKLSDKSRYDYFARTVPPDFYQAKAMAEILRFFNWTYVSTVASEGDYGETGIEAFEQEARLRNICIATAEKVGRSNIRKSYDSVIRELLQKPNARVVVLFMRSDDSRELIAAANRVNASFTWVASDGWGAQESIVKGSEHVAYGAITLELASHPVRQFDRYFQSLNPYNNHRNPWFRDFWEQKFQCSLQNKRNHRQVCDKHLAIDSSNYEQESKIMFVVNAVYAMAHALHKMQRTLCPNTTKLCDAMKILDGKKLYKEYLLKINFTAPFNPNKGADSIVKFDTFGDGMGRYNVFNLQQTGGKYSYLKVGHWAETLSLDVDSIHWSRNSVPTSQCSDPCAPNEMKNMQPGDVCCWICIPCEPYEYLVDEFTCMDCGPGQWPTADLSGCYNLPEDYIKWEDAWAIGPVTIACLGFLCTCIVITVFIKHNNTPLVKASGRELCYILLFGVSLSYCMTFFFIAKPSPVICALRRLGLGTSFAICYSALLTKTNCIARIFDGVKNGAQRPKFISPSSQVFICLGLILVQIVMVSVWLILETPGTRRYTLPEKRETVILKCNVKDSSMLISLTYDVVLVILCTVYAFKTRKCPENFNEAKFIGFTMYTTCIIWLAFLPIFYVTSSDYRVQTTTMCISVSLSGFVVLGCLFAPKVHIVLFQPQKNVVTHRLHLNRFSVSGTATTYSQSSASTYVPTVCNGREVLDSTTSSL
experimental details: mGlu receptor in vitro assay (thallium flux through GIRK channels / calcium assay), rat mGlu3
experimental context: PAM potency with EC20 glutamate
measurement type: pEC50
Notebook: values listed as pEC50 are -log10 of the concentration (mol/L).

Example entries begin here.
compound | endpoint result
COc1ccc(C(=O)O)cc1OCCCCCCOc1ccc(C(=O)CC(C)(C)C)c(O)c1C [Example 19] | 6.09
Cc1c(OCc2cnc(-c3cccc(C(=O)O)c3)cn2)ccc(C(=O)c2ccccc2)c1O [compound 67] | 6.20
COc1ccc(C(=O)O)cc1OCCCCOc1ccc(C(=O)Cc2ccccc2)c(O)c1C [compound 120] | 6.19
CCCC(=O)c1ccc(OC/C=C/COc2cccc(C(=O)O)c2C)c(C)c1O [Example 8] | 6.31
Cc1c(OCc2cnc(-c3cccc(C(=O)O)c3)cn2)ccc(C(=O)Cc2ccccc2)c1O [compound 121] | 6.23

Ask | So what's the measured pEC50 for this one? COc1ccc(C(=O)O)cc1OCCOc1ccc(C(=O)CC(C)(C)C)c(O)c1C [compound 93]
Reply | 5.91

----------
tested on: Human mGlu3 (Homo sapiens)
Sequence (Q14832 23-879): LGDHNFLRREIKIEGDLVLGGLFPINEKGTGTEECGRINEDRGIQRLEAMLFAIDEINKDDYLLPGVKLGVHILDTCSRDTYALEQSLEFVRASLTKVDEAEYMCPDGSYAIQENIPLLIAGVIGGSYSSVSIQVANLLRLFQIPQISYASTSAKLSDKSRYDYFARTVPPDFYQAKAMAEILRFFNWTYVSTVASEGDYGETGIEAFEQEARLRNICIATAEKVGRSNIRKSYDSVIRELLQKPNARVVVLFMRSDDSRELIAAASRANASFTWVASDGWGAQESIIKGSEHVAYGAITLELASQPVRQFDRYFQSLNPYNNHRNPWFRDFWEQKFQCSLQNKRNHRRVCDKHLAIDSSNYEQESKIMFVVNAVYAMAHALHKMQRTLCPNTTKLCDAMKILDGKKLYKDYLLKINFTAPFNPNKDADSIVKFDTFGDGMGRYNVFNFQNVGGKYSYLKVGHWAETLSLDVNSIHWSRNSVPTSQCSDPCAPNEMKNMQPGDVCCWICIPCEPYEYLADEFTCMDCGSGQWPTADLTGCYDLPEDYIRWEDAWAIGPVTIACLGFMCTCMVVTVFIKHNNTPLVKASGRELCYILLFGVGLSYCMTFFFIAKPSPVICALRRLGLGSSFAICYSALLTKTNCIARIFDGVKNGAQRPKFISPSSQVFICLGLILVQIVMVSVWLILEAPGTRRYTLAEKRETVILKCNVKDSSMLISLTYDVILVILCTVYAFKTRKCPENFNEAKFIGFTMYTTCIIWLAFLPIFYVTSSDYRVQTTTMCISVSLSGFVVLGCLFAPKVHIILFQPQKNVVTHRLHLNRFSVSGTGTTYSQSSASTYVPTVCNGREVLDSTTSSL
experimental details: mGlu receptor in vitro assay, human mGlu3
As shown below, each of these compounds has a reported log10(EC50) value.
Base-10 log of EC50, unit nM.

Take a look at these entries with their results.
compound | endpoint result
Cc1c(SCCCCSc2cccc(C(=O)O)c2)ccc(C(=O)CC(C)(C)C)c1O | 3.48
Cc1c(OCc2cccc(-c3cccc(C(=O)NC#N)c3)c2)ccc(C(=O)CC(C)(C)C)c1O | 2.77
Cc1c(OCc2cnc(-c3ccc(F)c(C(=O)O)c3)cn2)ccc(C(=O)CC(C)(C)C)c1O | 2.19
COc1ccc(C(=O)O)cc1OCCCCCCCCCCOc1ccc(C(=O)CC(C)(C)C)c(O)c1C | 3.00
COc1c(C(=O)O)cccc1-c1cccc(COc2ccc(C(=O)CC(C)(C)C)c(O)c2C)c1 | 2.20

Ask | Consider the compound shown here: CCCC(=O)c1ccc(OC/C=C/COc2ccc(C(=O)O)c(Cl)c2)c(C)c1O What is its recorded log10(EC50)?
Reply | 3.05

Ask | // log10(EC50) lookup, key: Cc1c(OCCCCCOc2ccc(C(=O)CC(C)(C)C)c(O)c2C)cccc1C(=O)O
Reply | 2.89

Ask | Given the compound Cc1c(OCc2cnc(-c3ccc(C(=O)O)c(F)c3)cn2)ccc(C(=O)CC(C)(C)C)c1O , what is its reported log10(EC50)?
Reply | 3.60

----------
tested on: Rat mGlu3 (Rattus norvegicus, UniProt P31422)
experimental details: mGlu receptor in vitro assay (thallium flux through GIRK channels / calcium assay), rat mGlu3
experimental context: PAM potency with EC20 glutamate
measurement type: EC50

Recorded EC50, per entry:
compound | EC50
COc1ccc(C(=O)O)cc1OC/C=C/COc1ccc(C(=O)CC(C)(C)C)c(O)c1C | 47 nM
Cc1c(OCOc2ccc(C(=O)CC(C)(C)C)c(O)c2C)cccc1C(=O)O | > 30000 nM
CCCCC(=O)c1ccc(OCCCCCOc2cccc(C(=O)O)c2C)c(C)c1O | > 10000 nM
Cc1c(OCc2cncc(-c3cccc(C(=O)O)c3)n2)ccc(C(=O)CC(C)(C)C)c1O | 281 nM
COc1ccc(C(=O)O)cc1OCCCCOc1ccc(C(=O)C2CC2)c(O)c1C | > 10000 nM
CCCC(=O)c1ccc(OCOc2cccc(C(=O)O)c2C)c(C)c1O | > 30000 nM
COc1ccc(C(=O)O)cc1OCCC(C)(C)CCOc1ccc(C(=O)CC(C)(C)C)c(O)c1C | 1030 nM

In the following, a different compound is considered.
Ask | Return EC50 measured with Rat mGlu3 (Rattus norvegicus, UniProt P31422) given this compound: CCCC(=O)c1ccc(OCCC(C)(C)CCOc2cccc(C(=O)O)c2C)c(C)c1O
Reply | > 10000 nM

----------
tested on: Rat mGlu3 (Rattus norvegicus, UniProt P31422)
Construct: expressed in transfected cells; host or cells: HEK-293 co-expressing GIRK channels
experimental details: mGlu receptor in vitro assay (thallium flux through GIRK channels / calcium assay), rat mGlu3
Type: cell-based
experimental context: PAM potency with EC20 glutamate
measurement type: pEC50
The value called pEC50 is obtained by taking minus log10 of the concentration in mol/L.

Below, 3 compounds whose answers are already recorded.
compound | measurement type | endpoint result
COc1ccc(NC(=O)NS(C)(=O)=O)cc1OCCCCOc1ccc(C(=O)CC(C)(C)C)c(O)c1C | pEC50 | 5.62
COc1ccc(C(=O)O)cc1OCCCCOc1ccc(C(=O)c2ccccc2)c(O)c1C | pEC50 | 6.65
CCCC(=O)c1ccc(OCc2nc(-c3cccc(C(=O)O)c3)no2)c(C)c1O | pEC50 | 6.18

Turning to the following compound.
Ask | Suppose we examine the compound COc1ccc(C(=O)O)cc1-c1cncc(COc2ccc(C(=O)C3CC3)c(O)c2C)n1 ; what pEC50 value has been reported?
Reply | 7.55

----------
tested on: Rat mGlu3 (Rattus norvegicus, UniProt P31422)
experimental details: mGlu receptor in vitro assay (thallium flux through GIRK channels / calcium assay), rat mGlu3
experimental context: PAM potency with EC20 glutamate
Note to self: EC50 under 900 nM means satisfied, ties and anything higher get not satisfied.

Look over these answered cases.
compound | category label
Cc1c(SCCCCOc2cccc(C(=O)O)c2)ccc(C(=O)CC(C)(C)C)c1O | not satisfied
COc1ccc(C(=O)O)cc1OCCCCSc1ccc(C(=O)CC(C)(C)C)c(O)c1C | not satisfied
CCCC(=O)c1ccc(OCCCCCOc2ccc(C(=O)O)c(Cl)c2)c(C)c1O | satisfied
COc1ccc(C(=O)O)cc1-c1cnc(COc2ccc(C(=O)CC(C)(C)C)c(O)c2C)cn1 | satisfied

Ask | Threshold test, EC50 < 900 nM: CCCC(=O)c1ccc(OC/C=C/COc2ccc(C(=O)O)c(Cl)c2)c(C)c1O
Reply | not satisfied

Ask | Consider Cc1c(OCc2cnc(-c3cccc(C(=O)O)c3)cn2)ccc(C(=O)C2CC2)c1O . Does its EC50 lie strictly below 900 nM?
Reply | not satisfied

Ask | Lab note: confirm whether the reported EC50 for this molecule is below 900 nM, equality not counting. molecule: Cc1c(OCCCCCOc2ccc(F)c(C(=O)O)c2)ccc(C(=O)CC(C)C)c1O
Reply | not satisfied

----------
Quick list: EC50 per entry.
tested on: Human mGlu2 (Homo sapiens)
Sequence (Q14416 19-872): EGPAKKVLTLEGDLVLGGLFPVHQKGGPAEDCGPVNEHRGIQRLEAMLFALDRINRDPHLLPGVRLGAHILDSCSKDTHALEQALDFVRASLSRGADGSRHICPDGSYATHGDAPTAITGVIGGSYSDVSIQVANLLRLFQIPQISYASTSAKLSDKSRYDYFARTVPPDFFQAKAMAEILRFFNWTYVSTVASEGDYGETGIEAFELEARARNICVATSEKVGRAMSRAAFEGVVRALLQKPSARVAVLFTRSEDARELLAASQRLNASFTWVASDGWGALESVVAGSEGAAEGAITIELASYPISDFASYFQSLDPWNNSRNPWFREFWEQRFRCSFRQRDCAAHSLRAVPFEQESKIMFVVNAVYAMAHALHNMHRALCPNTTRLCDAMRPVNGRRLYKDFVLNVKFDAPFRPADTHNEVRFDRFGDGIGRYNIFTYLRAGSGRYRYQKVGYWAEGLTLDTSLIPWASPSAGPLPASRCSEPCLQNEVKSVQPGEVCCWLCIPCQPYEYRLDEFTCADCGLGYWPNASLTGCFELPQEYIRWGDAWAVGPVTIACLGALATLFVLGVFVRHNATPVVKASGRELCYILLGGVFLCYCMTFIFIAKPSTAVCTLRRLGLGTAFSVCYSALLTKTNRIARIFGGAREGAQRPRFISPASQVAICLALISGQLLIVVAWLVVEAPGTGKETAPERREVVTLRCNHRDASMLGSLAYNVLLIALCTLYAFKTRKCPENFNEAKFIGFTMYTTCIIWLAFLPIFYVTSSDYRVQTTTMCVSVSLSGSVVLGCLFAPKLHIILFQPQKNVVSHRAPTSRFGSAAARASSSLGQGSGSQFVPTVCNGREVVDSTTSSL
experimental details: mGlu receptor in vitro assay, human mGlu2
Quick note: give the figure in nM, leave out the unit.

compound | unit annotation | endpoint result
COc1c(C(=O)O)cccc1-c1ccc(COc2ccc(C(=O)CC(C)(C)C)c(O)c2C)cc1 | nM | 190
Cc1c(OCc2cnc(-c3cc(F)cc(C(=O)O)c3)cn2)ccc(C(=O)CC(C)(C)C)c1O | nM | 1750
CCCC(=O)c1ccc(OCCSCCOc2cccc(C(=O)O)c2C)c(C)c1O | nM | 28
CCCC(=O)c1ccc(OCC2(COc3cccc(C(=O)O)c3C)CC2)c(C)c1O | nM | 14
CCCC(=O)c1ccc(OCCOCCOc2ccc(C(=O)O)cc2OC)c(C)c1O | nM | 26
COc1c(C(=O)O)cccc1-c1ccc(COc2ccc(C(=O)CC(C)(C)C)c(O)c2C)nn1 | nM | 281

Ask | What reported EC50 corresponds to Cc1c(C(=O)O)cccc1-c1cccc(COc2ccc(C(=O)CC(C)(C)C)c(O)c2C)c1 on Human mGlu2 (Homo sapiens)?
Reply | 203

Ask | Request: EC50, test system Human mGlu2 (Homo sapiens), entry COc1c(C(=O)O)cccc1-c1cnc(COc2ccc(C(=O)CC(C)(C)C)c(O)c2C)nc1
Reply | 44

----------
tested on: Human mGlu3 (Homo sapiens)
experimental details: mGlu receptor in vitro assay, human mGlu3
measurement type: EC50 (nM)
Provide only the numeric value, understood in nM.

compound | EC50 / nM
COc1ccc(C(=O)O)cc1-c1noc(COc2ccc(C(=O)CC(C)(C)C)c(O)c2C)n1 | 117
CCCC(=O)c1ccc(OCCCCCOc2ccc(C(=O)O)c(Cl)c2)c(C)c1O | 300
COc1cccc(C(=O)c2ccc(OCc3cnc(-c4cccc(C(=O)O)c4)cn3)c(C)c2O)c1 | 1340

Ask | So what does the record say about EC50 for Cc1c(OCCCCOc2ccc(C(=O)O)c(F)c2)ccc(C(=O)CC(C)C)c1O ?
Reply | 773

Ask | # input compound: Cc1c(OCc2nc(-c3cccc(C(=O)O)c3)no2)ccc(C(=O)CC(C)(C)C)c1O ; wanted: its EC50
Reply | 79

Ask | Reported EC50, compound COc1ccc(C(=O)O)cc1OCCCCCCOc1ccc(C(=O)CC(C)(C)C)c(O)c1C : ____
Reply | 472

Ask | Which measured EC50 value corresponds to COc1c(C(=O)O)cccc1-c1ccc(COc2ccc(C(=O)CC(C)(C)C)c(O)c2C)cc1 ?
Reply | 222

Ask | Which EC50 is listed for Cc1c(OCc2cnc(-c3cc(F)cc(C(=O)O)c3)cn2)ccc(C(=O)CC(C)(C)C)c1O ?
Reply | 1080

Ask | EC50 for COc1c(C(=O)O)cccc1-c1ccc(COc2ccc(C(=O)CC(C)(C)C)c(O)c2C)nc1 ?
Reply | 74

Ask | Which EC50 value belongs to COc1ccccc1C(=O)c1ccc(OCc2cnc(-c3cccc(C(=O)O)c3)cn2)c(C)c1O ?
Reply | 685

Ask | Entry Cc1c(OCc2nnc(-c3cccc(C(=O)O)c3)o2)ccc(C(=O)CC(C)(C)C)c1O has what EC50?
Reply | 327

Ask | I have this compound here, COc1c(C(=O)O)cccc1-c1noc(COc2ccc(C(=O)CC(C)(C)C)c(O)c2C)n1 , and I need its recorded EC50.
Reply | 104

Ask | What value of EC50 has been recorded for this entry: Cc1c(C(=O)O)cccc1-c1cccc(COc2ccc(C(=O)CC(C)(C)C)c(O)c2C)c1
Reply | 1480
